Origin of the recorded values: patent US7968591B2

This section presents compounds with their documented BTX (Na+ channel) (% inhibition at 10 μM) values.
tested on: batrachotoxin (BTX) binding site of the sodium channel; test: Affinity for the batrachotoxin (BTX) binding site of the sodium channel; details: rat cerebrocortex synaptosomes, [3H]-Batrachotoxinin A20α benzoate 10 nM
Supply the numeric figure in %, leaving out any unit text.

Use these answered entries as a reference point.
CCn1cc(C)c(-c2ccc(Cl)cc2)c1C(=O)NCCC(=O)OC(C)(C)C : 31
Cc1cn(C)c(C(=O)NCCCN2CCCCC2C)c1-c1ccc(Cl)cc1 (centres unmarked) : 86
COc1ccc(CN2CCN(C(=O)c3c(-c4ccco4)c(C)cn3Cc3ccccc3)CC2)cc1F : 88
Cc1cn(Cc2ccc(C(F)(F)F)cc2)c(C(=O)NCCN2CCCC2)c1-c1ccco1 : 94
COc1ccc(OCCNC(=O)c2c(-c3ccccc3)c(C)cn2Cc2ccccc2)cc1 : 50
Cc1cn(Cc2ccccc2Br)c(C(=O)N2CCN(C(C)C)CC2)c1-c1ccc(Cl)cc1 : 83

Give reported BTX (Na+ channel) (% inhibition at 10 μM) for "Cc1cn(Cc2ccc(F)cc2)c(C(=O)NCCN2CCOCC2)c1-c1ccco1" (batrachotoxin (BTX) binding site of the sodium channel)
77

Report BTX (Na+ channel) (% inhibition at 10 μM) on batrachotoxin (BTX) binding site of the sodium channel for this entry: "Cc1cn(Cc2ccc(F)cc2)c(C(=O)NCCCN(C)C)c1-c1ccco1"
75

State BTX (Na+ channel) (% inhibition at 10 μM) (batrachotoxin (BTX) binding site of the sodium channel) of "COc1ccc(CNC(=O)c2c(-c3ccc(Cl)cc3)c(C)cn2Cc2ccccc2F)c(OC)c1" .
49

Report BTX (Na+ channel) (% inhibition at 10 μM) from batrachotoxin (BTX) binding site of the sodium channel testing of "COc1ccc(-c2c(C)cn(Cc3ccc(F)cc3)c2C(=O)N2CCN(CCN(C)C)CC2)cc1"
81

Quote BTX (Na+ channel) (% inhibition at 10 μM) with test system batrachotoxin (BTX) binding site of the sodium channel for "COc1ccc(CN2CCN(C(=O)c3c(-c4ccco4)c(C)cn3Cc3ccc(F)cc3)CC2)cc1F"
89

Provide the reported BTX (Na+ channel) (% inhibition at 10 μM) (system: batrachotoxin (BTX) binding site of the sodium channel) for "COc1ccc(-c2c(C)cn(C)c2C(=O)NCc2ccc(OC)cc2OC)cc1"
41

Give BTX (Na+ channel) (% inhibition at 10 μM) for "COc1cc(OC)c(CN2CCN(C(=O)c3c(-c4ccc(C)cc4)c(C)cn3C)CC2)c(OC)c1" tested on batrachotoxin (BTX) binding site of the sodium channel.
89

Give BTX (Na+ channel) (% inhibition at 10 μM) only, for "Cc1ccccc1N1CCN(C(=O)c2c(-c3ccc(Cl)cc3)c(C)cn2C)CC1" , using batrachotoxin (BTX) binding site of the sodium channel data.
55

Enter measured BTX (Na+ channel) (% inhibition at 10 μM), system batrachotoxin (BTX) binding site of the sodium channel, for the compound shown: "CCN(CC)CCCNC(=O)c1c(-c2ccc(Cl)cc2)c(C)cn1CC(C)C"
88

State BTX (Na+ channel) (% inhibition at 10 μM) on batrachotoxin (BTX) binding site of the sodium channel. Entry: COc1ccc(Cn2cc(C)c(-c3ccco3)c2C(=O)NCCC2CCCN2C)cc1 (centres unmarked)
81

Lab note: batrachotoxin (BTX) binding site of the sodium channel assay, enter BTX (Na+ channel) (% inhibition at 10 μM) for "COc1ccc(F)c(CN2CCN(C(=O)c3c(-c4ccc(Cl)cc4)c(C)cn3C)CC2)c1" here
73

Please tell me the measured BTX (Na+ channel) (% inhibition at 10 μM) for "COc1ccc(Cn2cc(C)c(-c3ccc(C)cc3)c2C(=O)N(C)CC(=O)OCc2ccccc2)cc1" ; system: batrachotoxin (BTX) binding site of the sodium channel.
74

Give measured BTX (Na+ channel) (% inhibition at 10 μM) for "Cc1cn(Cc2ccccc2)c(C(=O)NCCc2ccc(F)cc2)c1-c1ccc(Cl)cc1" (batrachotoxin (BTX) binding site of the sodium channel).
43

# return BTX (Na+ channel) (% inhibition at 10 μM) of "Cc1ccc(-c2c(C)cn(Cc3c(Cl)cccc3Cl)c2C(=O)N2CCC(O)CC2)cc1" (system: batrachotoxin (BTX) binding site of the sodium channel)
36

Answer with BTX (Na+ channel) (% inhibition at 10 μM) of "CCN(CC)CCN1CCN(C(=O)c2c(-c3ccc(C)cc3)c(C)cn2Cc2ccc(C)cc2)CC1" measured for batrachotoxin (BTX) binding site of the sodium channel.
91

* * *

tested on: batrachotoxin (BTX) binding site of the sodium channel; assay: Affinity for the batrachotoxin (BTX) binding site of the sodium channel; conditions: rat cerebrocortex synaptosomes, [3H]-Batrachotoxinin A20α benzoate 10 nM
// reported BTX (Na+ channel) (% inhibition at 10 μM) for each item listed
Give the figure together with its unit, number first.

COc1ccc(-c2c(C)cn(Cc3ccc(F)cc3)c2C(=O)NCCc2cccs2)cc1 [Example 35] : 48%

Report BTX (Na+ channel) (% inhibition at 10 μM) from batrachotoxin (BTX) binding site of the sodium channel testing of Cc1cn(Cc2ccccc2F)c(C(=O)NCCCn2ccnc2)c1-c1ccc(Cl)cc1 [Example 58]
93%

Provide measured BTX (Na+ channel) (% inhibition at 10 μM) on batrachotoxin (BTX) binding site of the sodium channel for COc1ccc(-c2c(C)cn(Cc3ccc(F)cc3)c2C(=O)NCCc2cccc(C(F)(F)F)c2)cc1 [Example 54] please.
42%

Under batrachotoxin (BTX) binding site of the sodium channel, report BTX (Na+ channel) (% inhibition at 10 μM) for COc1ccc(-c2c(C)cn(C)c2C(=O)N2CCN(c3cccc(Cl)c3)CC2)cc1 [Example 70]
59%

* * *

tested on: batrachotoxin (BTX) binding site of the sodium channel; assay: Affinity for the batrachotoxin (BTX) binding site of the sodium channel; conditions: rat cerebrocortex synaptosomes, [3H]-Batrachotoxinin A20α benzoate 10 nM
// reported BTX (Na+ channel) (% inhibition at 10 μM) for each item listed

// worked examples, BTX (Na+ channel) (% inhibition at 10 μM) included
Cc1cnc(C(=O)N2CCN(C(=O)c3c(-c4ccc(Cl)cc4)c(C)cn3Cc3ccccc3F)CC2)cn1 : 44%
COc1cccc(CNC(=O)c2c(-c3ccccc3)c(C)cn2Cc2ccccc2)c1 : 47%
COc1ccc(-c2c(C)cn(C)c2C(=O)NCCCn2ccnc2)cc1 : 44%

The record that follows has no BTX (Na+ channel) (% inhibition at 10 μM) shown yet.
Supply recorded BTX (Na+ channel) (% inhibition at 10 μM) for "Cc1cn(C)c(C(=O)N2CCN(c3ccncc3)CC2)c1-c1ccc(Cl)cc1" here.
76%

* * *

system: batrachotoxin (BTX) binding site of the sodium channel; experiment: Affinity for the batrachotoxin (BTX) binding site of the sodium channel; details: rat cerebrocortex synaptosomes, [3H]-Batrachotoxinin A20α benzoate 10 nM
Label MET when BTX (Na+ channel) (% inhibition at 10 μM) is at or above 80%; otherwise label NOT MET.

These recorded examples may help you get a feel for the data.
CCOc1ccc(CCNC(=O)c2c(-c3ccc(OC)cc3)c(C)cn2Cc2ccc(F)cc2)cc1 : NOT MET
Cc1ccc(-c2c(C)cn(Cc3ccccc3)c2C(=O)NCCN2CCCC2)cc1 : MET
COc1ccc(CN2CCN(C(=O)c3c(-c4ccccc4)c(C)cn3C)CC2)cc1F : NOT MET
COc1ccc(-c2c(C)cn(C)c2C(=O)N2CCN(c3cc(C)ccc3C)CC2)cc1 : NOT MET

Decide: BTX (Na+ channel) (% inhibition at 10 μM) of "CCCCn1cc(C)c(-c2ccc(C)cc2)c1C(=O)N1CCN(Cc2cc(OC)ccc2OC)CC1" >= 80%?
MET

Determine whether measured BTX (Na+ channel) (% inhibition at 10 μM) meets or exceeds 80% for Cc1cn(Cc2ccccc2)c(C(=O)NC(C)c2ccc3ccccc3c2)c1-c1ccco1 (centres unmarked)
NOT MET

Would you say "CCOc1ccc(Br)cc1CN1CCN(C(=O)c2c(-c3ccccc3)c(C)cn2C)CC1" shows BTX (Na+ channel) (% inhibition at 10 μM) at minimum 80%?
NOT MET

Identify whether the reported BTX (Na+ channel) (% inhibition at 10 μM) of the following compound is 80% or greater: "Cc1cn(C)c(C(=O)N2CCN(C3CCCCCC3)CC2)c1-c1ccco1"
NOT MET

Is it the case that "Cc1cn(Cc2ccccc2)c(C(=O)NCCN2CCCC2)c1-c1ccccc1" has BTX (Na+ channel) (% inhibition at 10 μM) reaching or exceeding 80%?
MET

Assess whether reported BTX (Na+ channel) (% inhibition at 10 μM) for "CCOc1ccc(Br)cc1CN1CCN(C(=O)c2c(-c3ccco3)c(C)cn2Cc2ccccc2)CC1" sits at 80% or higher.
MET

Decide: BTX (Na+ channel) (% inhibition at 10 μM) of COc1ccc(-c2c(C)cn(Cc3ccc(F)cc3)c2C(=O)N2CCCC2CN2CCCC2)cc1 (centres unmarked) >= 80%?
MET
